- tested_target: Neurotensin receptor type 1 (Rattus norvegicus)
- Sequence (P20789 whole entry): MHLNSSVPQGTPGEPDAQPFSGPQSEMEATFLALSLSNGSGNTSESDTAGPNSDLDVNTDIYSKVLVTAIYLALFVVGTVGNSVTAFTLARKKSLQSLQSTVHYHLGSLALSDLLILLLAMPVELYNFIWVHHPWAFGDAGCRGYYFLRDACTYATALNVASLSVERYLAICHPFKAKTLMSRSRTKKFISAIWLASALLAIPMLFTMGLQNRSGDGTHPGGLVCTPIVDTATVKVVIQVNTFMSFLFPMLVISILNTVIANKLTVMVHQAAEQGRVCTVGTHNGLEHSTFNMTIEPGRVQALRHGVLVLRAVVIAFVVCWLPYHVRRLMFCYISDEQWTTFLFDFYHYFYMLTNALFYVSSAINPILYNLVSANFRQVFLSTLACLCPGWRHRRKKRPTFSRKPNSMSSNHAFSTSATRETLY
Non-standard residues stand in square brackets, D forms with d. Residues, ends and D or L forms follow the SMILES beside them. *: point of attachment. Benzoyl(4-tBu) = CC(C)(C)c1ccc(C(=O)*)cc1; Butanoyl(3,3-Me2) = CC(C)(C)CC(=O)*; Orn = NCCC[C@H](N)C(=O)O; X2 = O=C(CC1CCC2CCCC21)*; X4 = O=C(CC1CC2CCC1C2)*
measured_property: Ki (nM)

# example entries with known answers
{"columns": ["compound", "measured_property", "observed"],
 "data": [
  ["CC[C@H](C)[C@H](NC(=O)[C@H](Cc1ccc(O)cc1)NC(=O)[C@@H]1CCCN1C(=O)[C@@H](N)CCCN)C(=O)N[C@@H](CC(C)C)C(=O)O (H-[Orn]PYIL-OH)", "Ki", 520],
  ["CC[C@H](C)[C@H](NC(=O)[C@H](Cc1ccc(O)cc1)NC(=O)[C@@H]1CCCN1C(=O)[C@H](CCCCN)NC(=O)CC1CCC2CCCC21)C(=O)N[C@@H](CC(C)C)C(=O)O (stereo not given in full) (X2-KPYIL-OH)", "Ki", 540],
  ["CC[C@H](C)[C@H](NC(=O)[C@H](Cc1ccc(O)cc1)NC(=O)[C@@H]1CCCN1C(=O)[C@H](CCCCN)NC(=O)CC1CC2CCC1C2)C(=O)N[C@@H](CC(C)C)C(=O)O (stereo not given in full) (X4-KPYIL-OH)", "Ki", 1000]
]}

[a] CC[C@H](C)[C@H](NC(=O)[C@H](Cc1ccc(O)cc1)NC(=O)[C@@H]1CCCN1C(=O)[C@H](CCCCN)NC(=O)c1ccc(C(C)(C)C)cc1)C(=O)N[C@@H](CC(C)C)C(=O)O ({Benzoyl(4-tBu)}-KPYIL-OH)
[b] CC[C@H](C)[C@H](NC(=O)[C@H](Cc1ccc(O)cc1)NC(=O)[C@@H]1CCCN1C(=O)[C@H](CCCCN)NC(=O)CC(C)(C)C)C(=O)N[C@@H](CC(C)C)C(=O)O ({Butanoyl(3,3-Me2)}-KPYIL-OH)
Incoming: // pick min by Ki: a , b Lab note: record the label of whichever item you select.
Outgoing: a
(a: 220 nM, b: 680 nM)
